biological target: A/Victoria/361/2011 NA with R150H (Q136, T148, H150, T439) (Influenza A virus)
experimental-endpoint: IC50 (nM)

INSERT INTO measurements (chemical_structure, value_reported) VALUES
  ('CCC(CC)[C@H](NC(C)=O)[C@@H]1[C@H](O)[C@@H](C(=O)O)C[C@H]1N=C(N)N', 0.08);

---

biological target: A/Victoria/361/2011 NA with T148I (Q136, I148, R150, T439) (Influenza A virus, UniProt G9LQ08, H150R/T148I); assay type: biochemical, influenza A(H3N2) virus
pIC50: −log10 of the molar value.
experimental-endpoint: pIC50

INSERT INTO measurements (chemical_structure, value_reported) VALUES
  ('CCC(CC)[C@H](NC(C)=O)[C@@H]1[C@H](O)[C@@H](C(=O)O)C[C@H]1N=C(N)N', 10.05);

---

biological target: A/Victoria/361/2011 NA with T439R (Q136, T148, R150, R439) (Influenza A virus, UniProt G9LQ08, H150R/T439R)
experimental-endpoint: IC50 (nM)

INSERT INTO assay_data (compound, experimental_endpoint, value_reported) VALUES
  ('CCC(CC)[C@H](NC(C)=O)[C@@H]1[C@H](O)[C@@H](C(=O)O)C[C@H]1N=C(N)N [Peramivir, peramivir]', 'IC50', 0.24);
